Target: T1, Tau peptide Start 419 Stop 438
T1 peptide: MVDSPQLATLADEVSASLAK
Assay: Pepscan ELISA on an array of linear 20-mer Tau 441 peptides
Design: unit not given here
peptide ELISA signal (no name or unit printed) listing for selected binders.

In: Looking for the measured peptide ELISA signal (no name or unit printed) of PT66 monoclonal antibody (recombinant, mouse IgG2a/kappa) (antibody, V domains shown, also called PT66 (PT1B545)) VH: QVQLQQPGAELVKPGASVKMSCKASGYTFTSYWITWVKQRPGQGLEWIGDIHPGRGSTKSNEKFKSKATLTVDTSSSTAYMQFSSLTSEDSAVYYCARRWGFDYWGQGTTLTVSS VL: DIVITQDELSNPVTSGESVSISCRSSKSLLYKDGKTYLNWFLQRPGQSPQLLIYLMSTRASGVSDRFSGSGSGTDFTLEISRVKAEDVGVYYCQQLVDYPLTFGAGTKLELKR , can you help?
Out: 2930

In: Looking for the measured peptide ELISA signal (no name or unit printed) of PT53 monoclonal antibody (recombinant, mouse IgG2a/kappa) (antibody, V domains shown, also called PT50/PT53) VH: EVKLMESGGGLVQPGASLRLSCAASGFTFTDYYMSWVRQPPGKAPEWLALIRNKANGYTTKYAASVKGRFTISRDNSQNILYLQMNTLRAEDSATYYCVKAVWFAYWGQGTLVTVSA VL: DIVITQDELSNPVTSGESVSISCRSSKSLLYKDGKTYLNWFLQRPGQSPQLLIYLMSTRASGVSDRFSGSGSGTDFTLEISRVKAEDVGVYYCLQLVEYPYTFGGGTKLEIKR , can you help?
Out: 2090

Now consider a different binder.
In: Looking for the measured peptide ELISA signal (no name or unit printed) of PT69 monoclonal antibody (recombinant, mouse IgG2a/kappa) (antibody, V domains shown, also called PT69/PT87; PT69 (PT1B548)) VH: QVQLQQPGAELVKPGASVKMSCKASGYTFTNYWITWVKQRPGQGLEWIGDIYPGSGRTKSNEKFKNKATLTADTSSSTAYMQLSSLTSEDSAVYYCTRRWGLDYWGQGTTLTVSS VL: DIVITQDELSNPVTSGESVSISCRSNKSLLYKDGKTYLNWFLQRPGQSPQLLIYLMSTRASGVSDRFSGSGSGTDFTLEISRVKAEDVGVYYCQQLVDYPLTFGAGTKLELKR , can you help?
Out: 2920
